molecular target: human CB1 receptor (hCB1) (Homo sapiens); assay: cAMP assay (LANCE TR-FRET) in CHO-K1 cells expressing hCB1; type: cell-based; details: intracellular cAMP, NKH-477 prestimulated, + agonist, − inverse agonist
Measurement Label: hCB1 EC50 range

1) O=C(NC1CCCC1)c1ccc2c(c1)N(S(=O)(=O)c1ccccc1)CCO2 :: +E
2) Cc1ccc(C(=O)N2CCSc3ccc(C(=O)NC(C)(C)C)cc32)cc1 :: −E
3) CC(C)CNC(=O)c1ccc2c(c1)N(S(=O)(=O)c1ccc(Cl)cc1)CCO2 :: +D
4) COc1ccc(C(=O)N2CCSc3ccc(C(=O)NCC(C)C)cc32)cc1 :: −E
5) O=S(=O)(c1ccc(C(F)(F)F)cc1)N1CCSc2ccc(-c3nnc(-c4ccccc4)o3)cc21 :: +D
6) O=S(=O)(c1ccc(F)cc1)N1CCSc2ccc(-c3nc(-c4ccccn4)no3)cc21 :: +D
7) CCc1noc(-c2ccc3c(c2)N(S(=O)(=O)c2ccc(C(F)(F)F)cc2)CCS3)n1 :: +D
8) O=S(=O)(c1ccc(C(F)(F)F)cc1)N1CCSc2ccc(-c3nc4ccccc4o3)cc21 :: +D

====

biological target: human CB1 receptor (hCB1) (Homo sapiens, UniProt P21554); assay: cAMP assay (LANCE TR-FRET) in CHO-K1 cells expressing hCB1; type: cell-based; conditions: intracellular cAMP, NKH-477 prestimulated, + agonist, − inverse agonist
Sequence (P21554 whole entry): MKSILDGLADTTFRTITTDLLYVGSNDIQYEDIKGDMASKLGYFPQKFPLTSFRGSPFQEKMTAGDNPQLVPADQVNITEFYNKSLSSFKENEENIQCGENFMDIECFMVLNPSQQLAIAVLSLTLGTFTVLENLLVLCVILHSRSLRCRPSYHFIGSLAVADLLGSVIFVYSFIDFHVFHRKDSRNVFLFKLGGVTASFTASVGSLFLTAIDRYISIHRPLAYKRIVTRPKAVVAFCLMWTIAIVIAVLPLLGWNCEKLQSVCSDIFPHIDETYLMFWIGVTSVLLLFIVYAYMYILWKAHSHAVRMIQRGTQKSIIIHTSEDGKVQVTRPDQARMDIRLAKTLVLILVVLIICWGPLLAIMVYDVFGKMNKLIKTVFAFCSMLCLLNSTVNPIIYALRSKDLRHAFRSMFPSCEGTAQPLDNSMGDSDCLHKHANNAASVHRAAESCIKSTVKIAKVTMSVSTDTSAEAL
Measurement Label: hCB1 EC50 range

1. CC(C)CNC(=O)c1ccc2c(c1)N(C(=O)c1ccc(Cl)cc1)CCS2 :: −E
2. CCN(CC)C(=O)c1ccc2c(c1)N(S(=O)(=O)c1ccc(C(F)(F)F)cc1)CCS2 :: +E
3. O=C(c1ccc2c(c1)N(S(=O)(=O)c1ccc(F)cc1)CCS2)N1CCOCC1 :: +E
4. O=C(NC1CCCC1)c1ccc2c(c1)N(C(=O)c1ccc(F)cc1)CCS2 :: −E
5. CC1(C)CCN(S(=O)(=O)c2ccccc2)c2cc(C(=O)N3CCCCC3)ccc2S1 :: −E
6. CC(C)(C)CNC(=O)c1ccc2c(c1)N(S(=O)(=O)c1ccccc1)CCC(C)(C)S2 :: −D
7. CC(C)CNC(=O)c1ccc2c(c1)N(C(=O)c1ccc(F)cc1)CCS2 :: −E
8. O=C(NC1CCCC1)c1ccc2c(c1)N(S(=O)(=O)c1ccc(Cl)cc1)CCO2 :: +D

====

target: human CB2 receptor (hCB2) (Homo sapiens, UniProt P34972); experiment: cell-based; format: cell-based; conditions: intracellular cAMP, CHO-K1 cells, NKH-477 prestimulated; + agonist, − inverse agonist
Sequence (P34972 whole entry): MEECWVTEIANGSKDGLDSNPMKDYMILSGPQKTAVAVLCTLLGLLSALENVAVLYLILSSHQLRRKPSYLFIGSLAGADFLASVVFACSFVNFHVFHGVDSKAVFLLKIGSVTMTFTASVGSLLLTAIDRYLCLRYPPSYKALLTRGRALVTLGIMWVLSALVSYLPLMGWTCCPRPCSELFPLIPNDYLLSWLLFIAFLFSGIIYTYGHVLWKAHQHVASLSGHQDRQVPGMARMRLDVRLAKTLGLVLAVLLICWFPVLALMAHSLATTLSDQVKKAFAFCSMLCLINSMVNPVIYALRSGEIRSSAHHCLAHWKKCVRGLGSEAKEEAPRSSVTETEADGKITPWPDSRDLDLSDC
Measurement Label: hCB2 EC50 range

1. O=C(NC12CC3CC(CC(C3)C1)C2)c1ccc2c(c1)N(C(=O)c1ccccc1)CCS2 :: −E
2. CCC(=O)N1CCSc2ccc(C(=O)NC(C)(C)C)cc21 :: +D
3. CC(C)CNC(=O)c1ccc2c(c1)N(S(=O)(=O)c1ccc(F)cc1)CCO2 :: +B
4. O=C(NNC(=O)c1ccc2c(c1)N(S(=O)(=O)c1ccc(F)cc1)CCS2)c1ccccc1 :: +E
5. CC(C)(C)NC(=O)c1ccc2c(c1)N(S(C)(=O)=O)CCS2 :: +E
6. CC1(C)CCN(S(=O)(=O)c2ccc(F)cc2)c2cc(C(=O)N3CCOCC3)ccc2S1 :: +E
7. CC(C)(C)NC(=O)c1ccc2c(c1)N(S(=O)(=O)c1ccc(F)cc1)CCS2 :: +B
8. CC(C)CNC(=O)c1ccc2c(c1)N(S(=O)(=O)c1ccccc1)CCS2 :: +C
